# ASSAY_COMMENT: qHTS assay to test for compound auto fluorescence at 460 nm (blue) in HEK293 cells (AID 720678); further: on the % scale 0 is the no-effect control and ±100 the full control effect
# RECORDED_CONDITIONS: blue autofluorescence 405/460 nm; series mostly up to 91.3 µM
Active and inactive are the calls of the source. The call rests on the fitted dose curve; in most records, active means well fitted curve in the direction sought with a large enough effect in the repeat runs; inconclusive means weak or mixed curves; inactive means flat fitted curve, though single readings scatter.
OUTCOME_MEASURE: fluorescence, % of triamterene

Answered cases to consult:
Lookup: Give the measured fluorescence, % of triamterene for NCCCN(CCO)CCO
Found: inactive

Lookup: Give the measured fluorescence, % of triamterene for CCCCCCCCCO
Found: inactive

Lookup: Give the measured fluorescence, % of triamterene for CCCc1ccccc1
Found: inactive

Lookup: Give the measured fluorescence, % of triamterene for CCCCC(CC)(CO)CO
Found: inactive

Lookup: Give the measured fluorescence, % of triamterene for CC[C@H](C)[C@H](N)C(=O)O
Found: inactive

New cases:
Lookup: Give the measured fluorescence, % of triamterene for CC(C)(C)c1cc(CO)cc(C(C)(C)C)c1O
Found: inactive

Lookup: Give the measured fluorescence, % of triamterene for Cc1occc1S
Found: inactive

Lookup: Give the measured fluorescence, % of triamterene for O=C(C(=O)c1ccc(Br)cc1)c1ccc(Br)cc1
Found: 0.126% [at 18.6 µM] (inactive)

Lookup: Give the measured fluorescence, % of triamterene for Cc1cc(O)ccc1N
Found: inactive

Lookup: Give the measured fluorescence, % of triamterene for CC1(C)[C@H]2CC[C@]1(C)[C@H](O)C2
Found: inactive

Lookup: Give the measured fluorescence, % of triamterene for O=C(O)/C=C/c1cnc[nH]1
Found: inactive

Lookup: Give the measured fluorescence, % of triamterene for CC(C)NCC(O)c1cc(O)cc(O)c1 (stereo not given)
Found: inactive

Lookup: Give the measured fluorescence, % of triamterene for CC(=O)CC(=O)c1ccccc1
Found: inactive

Lookup: Give the measured fluorescence, % of triamterene for CCN(CC)CCc1nc(-c2ccccc2)no1
Found: -0.138% [at 18.6 µM] (inactive)

Lookup: Give the measured fluorescence, % of triamterene for CCN(CC)C(C)CN1c2ccccc2Sc2ccccc21 (stereo not given)
Found: -0.0331% [at 18.6 µM] (inactive)

Lookup: Give the measured fluorescence, % of triamterene for CC(=O)c1ccc2c(c1)[C@H](NC(=O)c1ccc(F)cc1)[C@@H](O)C(C)(C)O2
Found: inactive

Lookup: Give the measured fluorescence, % of triamterene for CCCCOc1cc(C(=O)OCCN(CC)CC)ccc1N
Found: 0.0068% [at 18.6 µM] (inactive)

====

# ASSAY_COMMENT: qHTS assay for small molecule agonists of the antioxidant response element (ARE) signaling pathway (AID 743202); further: on the % scale 0 is the no-effect control and ±100 the full control effect
# RECORDED_CONDITIONS: HepG2 ARE-bla reporter, beta-lactamase FRET, 16 h; series mostly up to 73.3 µM
Results filed as inconclusive are left out. The source made the active and inactive calls. Calls come from the whole dose curve; as a rule, active = well fitted activation curve with a large enough effect in the signal ratio in the repeat runs (not every such curve was filed as active); inconclusive = weak or mixed curves, or effect the other way; inactive = no such curve, though single readings can be large or run the other way; the % refers to the signal ratio.
OUTCOME_MEASURE: outcome

Answered cases to consult:
Lookup: Give the measured outcome for CCOc1ccc(NC(=O)CC(C)=O)cc1
Found: inactive

Lookup: Give the measured outcome for COc1ccc([C@@H]2Sc3ccccc3N(CCN(C)C)C(=O)[C@@H]2OC(C)=O)cc1
Found: inactive

Lookup: Give the measured outcome for Cc1cccc(Oc2ccccc2)c1
Found: inactive

Lookup: Give the measured outcome for Nc1ccc(C(=O)N2CC3CC(CN(Cc4ccccc4)C3)C2)cc1
Found: inactive

Lookup: Give the measured outcome for CNS(=O)(=O)Cc1ccc2[nH]cc(CCN(C)C)c2c1
Found: inactive

# evaluate next
Lookup: Give the measured outcome for N#CCc1cccc(C(F)(F)F)c1
Found: inactive
